Where do these numbers come from? They come from the emibetuzumab library of Makowski et al. (2022).

B1: VH:VL chains; a variant is named by its letters at X, in order (parent)
chain 1: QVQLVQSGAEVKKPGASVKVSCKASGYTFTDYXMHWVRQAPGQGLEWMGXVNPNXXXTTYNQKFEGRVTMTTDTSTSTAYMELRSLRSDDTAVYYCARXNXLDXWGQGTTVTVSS
chain 2: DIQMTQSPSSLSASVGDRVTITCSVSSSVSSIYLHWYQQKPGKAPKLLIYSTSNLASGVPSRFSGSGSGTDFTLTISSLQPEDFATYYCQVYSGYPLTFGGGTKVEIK

Variants of: B1
Assay: yeast display scFab, FACS + sequencing
Settings: with MET
The list shows a part of the results. No count for the full screen is at hand.
value.type: antigen binding call

Check out these entries, answers already filled in.
{"variant.string": "YRRESAGF", "antigen binding call": "binds"}
{"variant.string": "DAGGGSSD", "antigen binding call": "no binding"}
{"variant.string": "YRRGGAGF", "antigen binding call": "binds"}
{"variant.string": "YRRGGSGS", "antigen binding call": "binds"}

Now turn to the next variant.
## Input Need antigen binding call of `AEAGADVV` , thanks.
## Output no binding
